target: G-protein coupled receptor 183 (Homo sapiens, UniProt P32249); test: Agonist activity at Go2-q-coupled human EBI2 expressed in COS7 cell membranes assessed as stimulation of [35S]GTPgammaS binding preincubated for 20 mins followed by [35S]GTPgammaS addition and measured after 1 hr by scintillation counting analysis; assay type: functional, Membrane
Sequence (P32249 whole entry): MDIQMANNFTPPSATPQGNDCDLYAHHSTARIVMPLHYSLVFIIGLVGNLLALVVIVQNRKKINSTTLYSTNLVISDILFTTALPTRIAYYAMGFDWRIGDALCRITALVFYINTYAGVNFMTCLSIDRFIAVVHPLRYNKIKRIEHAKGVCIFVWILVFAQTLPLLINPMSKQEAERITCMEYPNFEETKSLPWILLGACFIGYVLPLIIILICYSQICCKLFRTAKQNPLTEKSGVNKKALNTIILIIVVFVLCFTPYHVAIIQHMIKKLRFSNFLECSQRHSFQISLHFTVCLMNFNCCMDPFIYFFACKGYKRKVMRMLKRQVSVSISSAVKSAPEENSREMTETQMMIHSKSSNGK

# Compound smiles, EC50
records = [
    ("C[C@H](CCCC(C)(C)O)[C@H]1CC[C@H]2[C@H]3[C@H](CC[C@]12C)[C@@]1(C)CC[C@H](O)CC1=C[C@@]3(O)C(F)(F)F", "4.1 nM"),
    ("C[C@H](CCCC(C)(C)O)[C@H]1CC[C@H]2[C@@H]3[C@H](O)C=C4C[C@@H](O)CC[C@]4(C)[C@H]3CC[C@]12C", "0.032 nM"),
    ("C[C@H](CCCC(C)(C)O)[C@H]1CC[C@H]2[C@H]3[C@H](CC[C@]12C)[C@@]1(C)CC[C@H](O)CC1=C[C@]3(O)C(F)(F)F", "0.102 nM"),
]
